Here, each record is paired with measured %Inh data.
Test system: GCN2(Kin.Dom.2,S808G)
Construct: gene EIF2AK4
CONDITION_NOTES: concentration: 1 μM, replicates: in singlicate; n = 1;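 note: KINOMEscan kinase panel screen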
Express it in %; write the number only.

// known answers, use as guide
| COMPOUND | MEASURED_ENDPOINT | OBSERVED_VALUE |
| --- | --- | --- |
| O=C(O)COc1ncnc2cc(-c3ccc4[nH]ncc4c3)sc12 | %Inh | 0 |
| Cn1cncc1-c1ccc2ncnc(Nc3ccc(OCc4ccccc4)cc3)c2c1 [GW320571] | %Inh | 0 |
| COc1cc2ncn(-c3cc(OCC4CCCO4)c(C(N)=O)s3)c2cc1OC (stereo not shown) [GSK204607] | %Inh | 0 |
| COC(=O)c1c(-c2ccccc2)c2cc(OC)ccc2c(=O)n1Cc1ccccc1 | %Inh | 2 |

Could you now consider this next compound?
What the record says about Fc1cc(Cl)ccc1Nc1ccnc2cc(-c3ccc(CN4CCCCC4)o3)ccc12 [GW560116] : %Inh is 0

###

Tested on: MLK1
Construct: gene MAP3K9
CONDITION_NOTES: concentration: 1 μM, replicates: in singlicate; n = 1
MEASURED_ENDPOINT: %Inh (%)
Express it in %; write the number only.

// known answers, use as guide
| COMPOUND | SYSTEM_UNDER_TEST | %Inh / % |
| --- | --- | --- |
| Cn1cncc1-c1ccc2ncnc(Nc3ccc(OCc4ccccc4)cc3)c2c1 | MLK1 | 8 |
| Cl.c1ccc(-c2n[nH]cc2-c2ccnc(-c3ccc(CN4CCOCC4)cc3)c2)nc1 | MLK1 | 13 |
| Cc1cccc(-c2nc(C)cc(Nc3ccncc3)n2)n1 | MLK1 | 0 |
| COC(=O)c1c(-c2ccccc2)c2cc(C(=O)O)ccc2c(=O)n1Cc1ccccc1 | MLK1 | 41 |
| Cc1ccc(NC(=O)Nc2cc(C(C)(C)C)nn2-c2ccccc2)cc1 | MLK1 | 0 |
| COc1cccc(NC(=O)NC2CCN(c3ccnc(Nc4ccc(F)cc4)n3)C2)c1 (stereo not shown) | MLK1 | 0 |
| O=C1NC(=O)C(N2CCc3ccccc32)=C1c1ccccc1Cl | MLK1 | 14 |
| Nc1ncnc2[nH]c(-c3ccccc3)nc12 | MLK1 | 11 |

What the record says about COC(=O)c1c(-c2ccccc2)c2cc(OC)ccc2c(=O)n1Cc1ccccc1 : %Inh is 0

What the record says about COc1cccc(-c2cc(-c3c[nH]nc3-c3ccccn3)ccn2)c1 : %Inh is 0

What the record says about CCn1c(-c2cccnc2O)nc2cnccc21 : %Inh is 0

What the record says about CC(C)(C)c1ccc(C(=O)Nc2cn3cc(Cl)ccc3n2)cc1 : %Inh is 0

What the record says about Cn1ccc2ncnc(Oc3cccc(C(=O)Nc4ccccc4)c3)c21 : %Inh is 0

What the record says about Cl.O=C(Nc1cccc(-c2nn3ncccc3c2-c2ccnc(Nc3cccnc3)n2)c1)c1c(F)cccc1F : %Inh is 0

What the record says about Cc1nnc(-c2ccc3occ(-c4ccc(S(C)=O)cc4)c3c2)[nH]1 (stereo not shown) : %Inh is 6

What the record says about CS(=O)(=O)c1ccc(-c2nc3n(c2-c2ccncc2)CCC3)cc1 : %Inh is 0

What the record says about COc1cc2nccc(Nc3ccc(NC(=O)c4ccc(C)cc4)c(O)c3)c2cc1OC.Cl : %Inh is 0

What the record says about C[C@@H]1CCCCN1c1cc(-c2ccc3c(N)n[nH]c3c2)nc(N)n1 : %Inh is 0

What the record says about Cc1cccc(-c2cc(Nc3ccncc3)c3ccccc3n2)n1 : %Inh is 0

###

Test system: PHKG1
CONDITION_NOTES: concentration: 1 μM, replicates: in singlicate; n = 1
MEASURED_ENDPOINT: %Inh (%)
Express it in %; write the number only.

| COMPOUND | %Inh [%] |
| --- | --- |
| COc1ccccc1CNC(=O)c1cc(C(=O)c2ccccc2C)c[nH]1 | 1 |
| O=C(Nc1n[nH]c2nc(-c3nccs3)c(Br)cc12)C1CC1 | 0 |

What the record says about Cl.c1ccc(-c2n[nH]cc2-c2ccnc(-c3ccc(CN4CCOCC4)cc3)c2)nc1 : %Inh is 0

What the record says about Cc1ccc(C(=O)Nc2ccc(Nc3ccnc4cc(-c5ccccn5)ccc34)cc2O)cc1.Cl : %Inh is 0

What the record says about CS(=O)(=O)c1ccc(-c2c(-c3ncn[nH]3)sc(N3CCOCC3)c2C#N)cc1 : %Inh is 9

What the record says about NC(=O)c1nnc2ccccc2c1N : %Inh is 0

What the record says about Cc1nnc(-c2ccc3occ(-c4ccc(S(C)=O)cc4)c3c2)[nH]1 (stereo not shown) : %Inh is 15

###

Tested on: RSK4(Kin.Dom.2-C-terminal)
Construct: gene RPS6KA6
CONDITION_NOTES: concentration: 1 μM, replicates: in singlicate; n = 1
Here, each record is paired with measured %Inh data.
Express it in %; write the number only.

| COMPOUND | %Inh (%) |
| --- | --- |
| Cc1ccccc1-n1cnc2c(N)ncnc21 | 18 |

%Inh of Nc1ncnc2[nH]c(-c3ccccc3)nc12 , assay on RSK4(Kin.Dom.2-C-terminal), is 34

%Inh of O=C(Nc1ccccc1)Nc1cccc(Oc2ccc3nccn3n2)c1 , assay on RSK4(Kin.Dom.2-C-terminal), is 0

%Inh of COc1cc2ncn(-c3cc(OCC4CCCO4)c(C(N)=O)s3)c2cc1OC (stereo not shown) , assay on RSK4(Kin.Dom.2-C-terminal), is 22

%Inh of Cl.c1ccc(-c2n[nH]cc2-c2ccnc(-c3ccc(CN4CCOCC4)cc3)c2)nc1 , assay on RSK4(Kin.Dom.2-C-terminal), is 49

%Inh of CC(=O)Nc1nc2cnc(Nc3cc(NC(=O)c4cccc(CCC#N)c4)ccc3C)nc2s1 , assay on RSK4(Kin.Dom.2-C-terminal), is 0

###

Test system: MTOR
CONDITION_NOTES: concentration: 1 μM, replicates: in singlicate; n = 1
Rule: %Inh of 10% or more gives Criterion met; anything lower gives Criterion not met.

| MOLECULE | CLASS_NAME |
| --- | --- |
| COc1ccc(Nc2nccc(NCCNC(=O)Nc3ccccc3F)n2)cc1 | Criterion met |
| CN(C)CCN(C)C(=O)c1cc(-c2ccncc2)c(-c2ccc(Cl)c(O)c2)o1.Cl.Cl | Criterion met |
| Cl.O=C(Nc1cccc(-c2nn3ncccc3c2-c2ccnc(Nc3cccnc3)n2)c1)c1c(F)cccc1F | Criterion met |

[in] Record O=C(Nc1ccccc1)Nc1cccc(Oc2ccc3nccn3n2)c1 ; criterion: %Inh no lower than 10%. Met?
[out] Criterion met

[in] Record Cl.c1ccc(-c2n[nH]cc2-c2ccnc(-c3ccc(CN4CCOCC4)cc3)c2)nc1 ; criterion: %Inh no lower than 10%. Met?
[out] Criterion met

[in] Record O=S(=O)(c1ccc(-c2ccnc3[nH]ccc23)cc1)N1CCCC1 ; criterion: %Inh no lower than 10%. Met?
[out] Criterion met

[in] Record COc1cc2ncn(-c3cc(OCC4CCCO4)c(C(N)=O)s3)c2cc1OC (centres unmarked) ; criterion: %Inh no lower than 10%. Met?
[out] Criterion met

[in] Record COC(=O)c1c(-c2ccccc2)c2cc(OC)ccc2c(=O)n1Cc1ccccc1 ; criterion: %Inh no lower than 10%. Met?
[out] Criterion not met

###

System: PRKD1
CONDITION_NOTES: concentration: 1 μM, replicates: in singlicate; n = 1
MEASURED_ENDPOINT: %Inh (%)
Express it in %; write the number only.

| MOLECULE | UNITS_LABEL | %Inh |
| --- | --- | --- |
| COc1ccc(C2=C(Nc3cccc(C(=O)O)c3)C(=O)NC2=O)cc1 | % | 0 |
| Cc1cccc(-c2nc(-c3ccc(S(C)(=O)=O)cc3)sc2-c2ccnc(NCCc3ccccc3)c2)c1 | % | 1 |
| Nc1nc(-c2nccs2)c(-c2ccnc3ccccc23)s1 | % | 42 |
| Cc1nnc(-c2ccc3occ(-c4ccc(S(C)=O)cc4)c3c2)[nH]1 (stereo not drawn) | % | 0 |
| COc1cc2nccc(Nc3ccc(NC(=O)c4ccc(C)cc4)c(O)c3)c2cc1OC.Cl | % | 0 |

What the record says about Nc1ncnc2[nH]c(-c3ccccc3)nc12 : %Inh is 0

What the record says about NC(=O)c1nnc2ccccc2c1N : %Inh is 0

What the record says about COc1ccc(Nc2nccc(NCCNC(=O)Nc3ccccc3F)n2)cc1 : %Inh is 0

What the record says about Cl.O=C(Nc1cccc(-c2nn3ncccc3c2-c2ccnc(Nc3cccnc3)n2)c1)c1c(F)cccc1F : %Inh is 0

Just for reference, paper PMC5540273 is where these values come from.
